Assay: Therapeutic index, ratio of CC50 for human TZM-bl cells to IC50 for antiviral activity against HIV1 VB59 infected in human TZM-bl cells
Type: toxicity, cell-based
Conditions: read-out: Ratio CC50/IC50
So basically, if selectivity ratio comes in under 2 it's MET, and if it's 2 or more it's NOT MET.

- cpd-smiles: "Cc1cc2c(cnn2-c2cccc(Br)c2)c(=O)[nH]1"
  class-name: "MET"
- cpd-smiles: "Cc1cc2c(cnn2-c2ccc(C)c(C)c2)c(=O)[nH]1"
  class-name: "MET"
- cpd-smiles: "Cc1cc(C)cc(-n2ncc3c(=O)[nH]c(C)cc32)c1"
  class-name: "NOT MET"
- cpd-smiles: "Cc1cc2c(cnn2-c2ccc(Br)cc2)c(=O)[nH]1"
  class-name: "MET"
- cpd-smiles: "Cc1ccc(-n2ncc3c(=O)[nH]c(C)cc32)cc1"
  class-name: "NOT MET"
- cpd-smiles: "Cc1cc2c(cnn2-c2ccccc2)c(=O)[nH]1"
  class-name: "NOT MET"
- cpd-smiles: "COc1cccc(-n2ncc3c(=O)[nH]c(C)cc32)c1"
  class-name: "NOT MET"
